Test system: Liposcelis bostrychophila
Procedure summary: Insecticidal activity against adult Liposcelis bostrychophila (booklice) assessed as repellent activity at 6.4 nL/cm2 after 4 hr
Type: functional
Decision: Repellency compared against 90%; not below it gives yes, below it gives no.

# Molecule, Answer label
measured = [
    ("CC(C)=CCC[C@@H](C)CC=O [CITRONELLAL]", "no"),
    ("CC(C)=CCC/C(C)=C/CO [GERANIOL]", "yes"),
    ("CC(C)=CCC[C@@H](C)CCO [(+)-CITRONELLOL]", "no"),
    ("C=C(C)[C@H]1CC=C(C)CC1 [D-LIMONENE]", "no"),
]

* * *

Tested on: Tribolium castaneum
Procedure summary: Insecticidal activity against adult Tribolium castaneum (red flour beetle) assessed as repellent activity at 0.016 nL/cm2 after 4 hr
Format: functional

# Compound, Unit text, Repellency
measured = [
    ("CC(C)=CCC[C@@H](C)CC=O", "%", -16),
    ("CC(C)=CCC/C(C)=C/CO", "%", -10),
    ("CC(C)=CCC[C@@H](C)CCO [(+)-CITRONELLOL]", "%", 48),
    ("C=C(C)[C@H]1CC=C(C)CC1", "%", -36),
    ("CCN(CC)C(=O)c1cccc(C)c1 [DIETHYLTOLUAMIDE]", "%", -4),
]

* * *

Each entry below lists one item and its recorded Repellency value.
Tested on: Liposcelis bostrychophila
Procedure summary: Insecticidal activity against adult Liposcelis bostrychophila (booklice) assessed as repellent activity at 3.2 nL/cm2 after 4 hr
Assay type: functional
Assay metric: Repellency (%)

# Compound, Unit text, Endpoint value
rows = [
    ("CCN(CC)C(=O)c1cccc(C)c1 [DIETHYLTOLUAMIDE]", "%", 64),
    ("CC(C)=CCC[C@@H](C)CCO [(+)-CITRONELLOL]", "%", 44),
    ("CC(C)=CCC[C@@H](C)CC=O", "%", 12),
    ("C=C(C)[C@H]1CC=C(C)CC1", "%", -22),
    ("CC(C)=CCC/C(C)=C/CO", "%", 74),
]
